# TEST DETAILS: Ivosidenib plasma PK after a single oral dose (day −3, dose escalation), LC-MS/MS, non-compartmental
# Type: in vivo
# CONDITION: human, po, 300 mg, glioma, single oral 300 mg, day −3, geometric mean (geometric CV%), read-out: t1/2 (converted)
ASSAY READOUT: half-life
Please answer in the form of a number followed by its unit of measurement.

Quick one: half-life of N#Cc1ccnc(N2C(=O)CC[C@H]2C(=O)N(c2cncc(F)c2)[C@H](C(=O)NC2CC(F)(F)C2)c2ccccc2Cl)c1 [ivosidenib] ?
53.6 h

----------
# TEST DETAILS: Ivosidenib plasma PK after a single oral dose (day −3, dose escalation), LC-MS/MS, non-compartmental
# Type: in vivo
# CONDITION: human, po, 500 mg, non-glioma solid tumors, single oral 500 mg, day −3, geometric mean (geometric CV%), read-out: AUC0-72h
ASSAY READOUT: AUC(0-t) (µg·h/mL)
Answers are plain numbers, in µg·h/mL.

Quick one: AUC(0-t) of N#Cc1ccnc(N2C(=O)CC[C@H]2C(=O)N(c2cncc(F)c2)[C@H](C(=O)NC2CC(F)(F)C2)c2ccccc2Cl)c1 ?
112

----------
# TEST DETAILS: Ivosidenib plasma PK after a single oral dose (day −3, dose escalation), LC-MS/MS, non-compartmental
# Type: in vivo
# CONDITION: human, po, 100 mg, non-glioma solid tumors, single oral 100 mg, day −3, geometric mean (geometric CV%), read-out: t1/2 (converted)
ASSAY READOUT: half-life (h)
Give bare numbers, in h.

Quick one: half-life of N#Cc1ccnc(N2C(=O)CC[C@H]2C(=O)N(c2cncc(F)c2)[C@H](C(=O)NC2CC(F)(F)C2)c2ccccc2Cl)c1 ?
102

----------
# TEST DETAILS: Ivosidenib plasma PK after a single oral dose (day −3, dose escalation), LC-MS/MS, non-compartmental
# Type: in vivo
# CONDITION: human, po, 100 mg, non-glioma solid tumors, single oral 100 mg, day −3, geometric mean (geometric CV%), read-out: AUC0-72h
# Description: In the dose escalation portion, patients with 1) glioma and 2) non-glioma solid tumors were enrolled into sequential cohorts using a standard 3 + 3 design. […] Plasma ivosidenib was measured using two validated liquid chromatography-tandem mass spectrometry (LC-MS/MS) methods. The lower limit of quantification (LLOQ) was 1.00 ng/mL (low-range assay) or 50.0 ng/mL (high-range assay). […] Plasma 2-HG concentrations were measured using a qualified LC-MS/MS method with an LLOQ of 30.0 ng/mL. […]
ASSAY READOUT: AUC(0-t) (ng·h/mL)
Numbers only, in ng·h/mL.

Quick one: AUC(0-t) of N#Cc1ccnc(N2C(=O)CC[C@H]2C(=O)N(c2cncc(F)c2)[C@H](C(=O)NC2CC(F)(F)C2)c2ccccc2Cl)c1 ?
34800

----------
# TEST DETAILS: Ivosidenib plasma PK after a single oral dose (day −3, dose escalation), LC-MS/MS, non-compartmental
# Assay type: in vivo
# CONDITION: human, po, 300 mg, non-glioma solid tumors, single oral 300 mg, day −3, median (minimum; maximum), read-out: Tmax
ASSAY READOUT: Tmax (h)
Answers are plain numbers, in h.

Quick one: Tmax of N#Cc1ccnc(N2C(=O)CC[C@H]2C(=O)N(c2cncc(F)c2)[C@H](C(=O)NC2CC(F)(F)C2)c2ccccc2Cl)c1 ?
4.17

----------
# TEST DETAILS: Ivosidenib plasma PK after a single oral dose (day −3, dose escalation), LC-MS/MS, non-compartmental
# Type: in vivo
# CONDITION: human, po, 800 mg, non-glioma solid tumors, single oral 800 mg, day −3, geometric mean (geometric CV%)
ASSAY READOUT: Cmax (ng/mL)
Answers are plain numbers, in ng/mL.

Quick one: Cmax of N#Cc1ccnc(N2C(=O)CC[C@H]2C(=O)N(c2cncc(F)c2)[C@H](C(=O)NC2CC(F)(F)C2)c2ccccc2Cl)c1 ?
6190

----------
# TEST DETAILS: Ivosidenib plasma PK after single and multiple 500 mg QD doses (dose expansion)
# Assay type: in vivo, human
# CONDITION: human, plasma, oral, 500 mg, expansion chondrosarcoma, cycle 1 day 1, median (minimum; maximum)
ASSAY READOUT: Tmax (h)
Numbers only, in h.

Quick one: Tmax of N#Cc1ccnc(N2C(=O)CC[C@H]2C(=O)N(c2cncc(F)c2)[C@H](C(=O)NC2CC(F)(F)C2)c2ccccc2Cl)c1 [ivosidenib] ?
2.98

----------
# TEST DETAILS: Ivosidenib plasma PK after single and multiple 500 mg QD doses (dose expansion)
# Assay type: in vivo, human
# CONDITION: human, plasma, oral, 500 mg, expansion other solid tumors, cycle 1 day 1, geometric mean (geometric CV%)
ASSAY READOUT: Cmax (ng/mL)
Answers are plain numbers, in ng/mL.

Quick one: Cmax of N#Cc1ccnc(N2C(=O)CC[C@H]2C(=O)N(c2cncc(F)c2)[C@H](C(=O)NC2CC(F)(F)C2)c2ccccc2Cl)c1 ?
2290

----------
# TEST DETAILS: Ivosidenib plasma PK after multiple oral doses (dose escalation)
# Type: in vivo, human
# CONDITION: human, plasma, oral, 500 mg, non-glioma solid tumors, 500 mg QD, cycle 2 day 1; geometric mean; read-out: AUC0-10hr
ASSAY READOUT: AUC(0-t) (ng·h/mL)
Give bare numbers, in ng·h/mL.

Quick one: AUC(0-t) of N#Cc1ccnc(N2C(=O)CC[C@H]2C(=O)N(c2cncc(F)c2)[C@H](C(=O)NC2CC(F)(F)C2)c2ccccc2Cl)c1 [ivosidenib] ?
33900

----------
# TEST DETAILS: Ivosidenib plasma PK after multiple oral doses (dose escalation)
# Assay type: in vivo, human
# CONDITION: human, plasma, oral, 500 mg, non-glioma solid tumors, 500 mg QD, cycle 2 day 1; geometric mean
ASSAY READOUT: Cmax (ng/mL)
Give bare numbers, in ng/mL.

Quick one: Cmax of N#Cc1ccnc(N2C(=O)CC[C@H]2C(=O)N(c2cncc(F)c2)[C@H](C(=O)NC2CC(F)(F)C2)c2ccccc2Cl)c1 [ivosidenib] ?
4420

----------
# TEST DETAILS: Ivosidenib plasma PK after a single oral dose (day −3, dose escalation), LC-MS/MS, non-compartmental
# Assay type: in vivo
# CONDITION: human, po, 500 mg, glioma, single oral 500 mg, day −3, geometric mean (geometric CV%), read-out: t1/2 (converted)
ASSAY READOUT: half-life

Quick one: half-life of N#Cc1ccnc(N2C(=O)CC[C@H]2C(=O)N(c2cncc(F)c2)[C@H](C(=O)NC2CC(F)(F)C2)c2ccccc2Cl)c1 [ivosidenib] ?
56.4 h

----------
# TEST DETAILS: Ivosidenib plasma PK after a single oral dose (day −3, dose escalation), LC-MS/MS, non-compartmental
# Type: in vivo
# CONDITION: human, po, 500 mg, non-glioma solid tumors, single oral 500 mg, day −3, geometric mean (geometric CV%), read-out: t1/2 (converted)
ASSAY READOUT: half-life (h)
One number for each entry, in h.

Quick one: half-life of N#Cc1ccnc(N2C(=O)CC[C@H]2C(=O)N(c2cncc(F)c2)[C@H](C(=O)NC2CC(F)(F)C2)c2ccccc2Cl)c1 [ivosidenib] ?
64.3

----------
# TEST DETAILS: Ivosidenib plasma PK after a single oral dose (day −3, dose escalation), LC-MS/MS, non-compartmental
# Format: in vivo
# CONDITION: human, oral, 500 mg, single dose of 500 mg, patients with cholangiocarcinoma/chondrosarcoma, read-out: mean t1/2 (converted)
ASSAY READOUT: half-life (h)
Give bare numbers, in h.

Quick one: half-life of N#Cc1ccnc(N2C(=O)CC[C@H]2C(=O)N(c2cncc(F)c2)[C@H](C(=O)NC2CC(F)(F)C2)c2ccccc2Cl)c1 ?
64

----------
# TEST DETAILS: Ivosidenib plasma PK after single and multiple 500 mg QD doses (dose expansion)
# Format: in vivo, human
# CONDITION: human, plasma, oral, 500 mg, expansion cholangiocarcinoma, cycle 2 day 1, median (minimum; maximum)
ASSAY READOUT: Tmax (h)
Give bare numbers, in h.

Quick one: Tmax of N#Cc1ccnc(N2C(=O)CC[C@H]2C(=O)N(c2cncc(F)c2)[C@H](C(=O)NC2CC(F)(F)C2)c2ccccc2Cl)c1 ?
2.03

----------
# TEST DETAILS: Ivosidenib plasma PK after a single oral dose (day −3, dose escalation), LC-MS/MS, non-compartmental
# Type: in vivo
# CONDITION: human, po, 300 mg, non-glioma solid tumors, single oral 300 mg, day −3, geometric mean (geometric CV%), read-out: t1/2 (converted)
ASSAY READOUT: half-life (h)
Numbers only, in h.

Quick one: half-life of N#Cc1ccnc(N2C(=O)CC[C@H]2C(=O)N(c2cncc(F)c2)[C@H](C(=O)NC2CC(F)(F)C2)c2ccccc2Cl)c1 [ivosidenib] ?
77.9

----------
# TEST DETAILS: Ivosidenib plasma PK after a single oral dose (day −3, dose escalation), LC-MS/MS, non-compartmental
# Type: in vivo
# CONDITION: human, oral, single dose, patients with non-glioma solid tumors, range across doses, read-out: mean t1/2 (converted)
ASSAY READOUT: half-life

Quick one: half-life of N#Cc1ccnc(N2C(=O)CC[C@H]2C(=O)N(c2cncc(F)c2)[C@H](C(=O)NC2CC(F)(F)C2)c2ccccc2Cl)c1 [ivosidenib] ?
62 to 102 h
